Assay: Particle size and PDI of nucleic acid lipid nanoparticle preparations by dynamic light scattering
Type: physicochemical
Conditions: DMG-PEG2000:DSPC:Chol:compound 1.40:11.15:38.95:48.50, N/P 30
MEASURE_NAME: PDI

[[record]]
compound = "CCCCCCOC(C)OCCCCCCOC(=O)C(O)CN(CCCN(C)CCCN(CC(O)C(=O)OCCCCCCOC(C)OCCCCCC)CC(O)C(=O)OCCCCCCOC(C)OCCCCCC)CC(O)C(=O)OCCCCCCOC(C)OCCCCCC (centres unmarked) [Compound L0316]"
observed = 0.12

[[record]]
compound = "CCCCCCCCC(CCCCCC)C(=O)OCCCCCCOC(=O)C(O)CN(CCCN(C)CCCN(CC(O)C(=O)OCCCCCCOC(=O)C(CCCCCC)CCCCCCCC)CC(O)C(=O)OCCCCCCOC(=O)C(CCCCCC)CCCCCCCC)CC(O)C(=O)OCCCCCCOC(=O)C(CCCCCC)CCCCCCCC (centres unmarked) [Compound L0295]"
observed = 0.10

[[record]]
compound = "CCCCCCCCCCOC(=O)C(O)CN(C)CCCN(C)CCCN(C)CC(O)C(=O)OCCCCCCCCCC (centres unmarked) [Compound L0315]"
observed = 0.13

[[record]]
compound = "CCCCCCCCCCCCNC(=O)C(O)CNCCCN(C)CCCNCC(O)C(=O)NCCCCCCCCCCCC (centres unmarked) [Compound L0289]"
observed = 0.09

[[record]]
compound = "CCCCCCCCCCCCNC(=O)C(O)CNCCN(C)CCN(CC(O)C(=O)NCCCCCCCCCCCC)CC(O)C(=O)NCCCCCCCCCCCC (centres unmarked) [Compound L0290]"
observed = 0.17

